Recorded Growth Rate for the following compounds
- Tested on: Fibroblast
- test: Incucyte cell viability with human fibroblast; further: unitless GR value; below 1 slowed growth and below 0 cell loss
- Assay type: toxicity, cell-based
- condition label: 24 h, 10 µM, compound concentration 10 uM, replicate number 1

[
  {
    "compound": "O=C(O)c1ccc(-c2c[nH]c3ncc(-c4ccccc4)cc23)cc1C1CCCC1",
    "Growth Rate": 0.38
  },
  {
    "compound": "C[C@@H](CN1CCC(Cc2ccccc2)CC1)[C@@H](O)c1ccc(O)cc1",
    "Growth Rate": 0.78
  },
  {
    "compound": "O=C(O)c1cc(F)c2nc(N3[C@@H]4CC[C@H]3C[C@@H](OCc3c(-c5ccccc5OC(F)(F)F)noc3C3CC3)C4)sc2c1 [TROPIFEXOR]",
    "Growth Rate": 0.97
  },
  {
    "compound": "OC(c1ccc(-c2ccc(CN3CCN(Cc4ccncc4)CC3)cc2)c(F)c1)(C(F)(F)F)C(F)(F)F",
    "Growth Rate": 0.39
  }
]

====

- Tested on: HEK-293T
- test: Incucyte cell viability with HEK293T; further: unitless GR value; below 1 slowed growth and below 0 cell loss
- Assay type: toxicity, cell-based
- condition label: human, 0 h, 10 µM, compound concentration 10 uM, replicate number 2
Binary classification by Growth Rate, with 0.04 as an inclusive lower bound for condition met; all other cases are condition not met.

[
  {
    "compound": "CC(F)(F)CN1C(=O)c2[nH]nc(-c3cccc4[nH]c(=O)oc34)c2C1c1ccc(Oc2cc(C(F)(F)F)cc(C(F)(F)F)c2)cc1 (stereo not given)",
    "tested on": "HEK-293T",
    "class assignment": "condition not met"
  },
  {
    "compound": "O=C1NCCc2c(OCCCCN3CCCCC3)cccc21",
    "tested on": "HEK-293T",
    "class assignment": "condition met"
  },
  {
    "compound": "CCn1c(-c2nonc2N)nc2cncc(C(=O)N3CC[C@H](N)C3)c21.Cl",
    "tested on": "HEK-293T",
    "class assignment": "condition not met"
  },
  {
    "compound": "COc1c(-c2cn(C3CCC(=O)NC3=O)nn2)csc1C(=O)N1CCCC1 (stereo not given)",
    "tested on": "HEK-293T",
    "class assignment": "condition met"
  }
]

====

- Tested on: Fibroblast
- test: Incucyte cell viability with human fibroblast; further: unitless GR value; below 1 slowed growth and below 0 cell loss
- Type: toxicity, cell-based
- condition label: 0 h, 10 µM, compound concentration 10 uM, replicate number 2
Label key: YES means Growth Rate under -0.4; NO means Growth Rate of -0.4 or more.

[
  {
    "compound": "Cc1c(N2CCNCC2)nc2ccc(Br)cc2c1C(=O)NC[C@H](CCC(=O)O)c1ccccc1Cl",
    "class assignment": "NO"
  },
  {
    "compound": "CC[C@H](CC(=O)O)n1c(=O)c2ncccc2n(Cc2cn(C)c3cc(C)cc(C)c23)c1=O",
    "class assignment": "NO"
  },
  {
    "compound": "Cc1nnsc1C(=O)Nc1ccc(-n2nc(C(F)(F)F)cc2C(F)(F)F)cc1",
    "class assignment": "NO"
  },
  {
    "compound": "O=C(Cc1ccccc1)Nc1nnc(N2C[C@H]3C[C@@H]2CN3c2cccnn2)s1",
    "class assignment": "NO"
  },
  {
    "compound": "CC(C=CC1=C(C)CCCC1(C)C)=CC=CC(C)=CC(=O)O",
    "class assignment": "NO"
  },
  {
    "compound": "O=C(O)CCCCN(CCc1ccccc1OCc1ccc(CCc2ccccc2)cc1)Cc1ccc(C(=O)O)cc1",
    "class assignment": "YES"
  },
  {
    "compound": "C[C@@H]1CN(CC(=O)N2CC(C)(C)c3nc(CO)c(Cc4ccc(F)cc4)cc32)[C@@H](CN2CCOC[C@H]2C)CN1",
    "class assignment": "NO"
  },
  {
    "compound": "CC1(C)C[C@@H]1C(=O)N/C(=C\\CCCCSC[C@H](N)C(=O)O)C(=O)O",
    "class assignment": "YES"
  },
  {
    "compound": "C[C@]12CC[C@@H]3c4ccc(C(N)=O)cc4CC[C@H]3[C@@H]1CC=C2c1cncc(F)c1",
    "class assignment": "YES"
  },
  {
    "compound": "C[C@H]1CN(C2COC2)CCN1c1ccc(Nc2cc(-c3ccnc(N4CCn5c(cc6c5CC(C)(C)C6)C4=O)c3CO)cn(C)c2=O)nc1",
    "class assignment": "YES"
  },
  {
    "compound": "CCc1ccc(-c2ncn(CC3(F)CCN(C)CC3)c2-c2ccnc3[nH]ccc23)nc1",
    "class assignment": "NO"
  },
  {
    "compound": "CC(C)[C@H](C(=O)Nc1ccc(C(=O)NO)cc1)c1ccccc1",
    "class assignment": "NO"
  },
  {
    "compound": "C[C@H](C[C@H](N)C(=O)O)C(=O)O [2S,4R-4-METHYLGLUTAMATE]",
    "class assignment": "YES"
  },
  {
    "compound": "COc1cc2c(cc1CC=C(C)C)C(=O)C[C@@H](c1ccc(O)cc1)O2",
    "class assignment": "NO"
  },
  {
    "compound": "Cc1c(NC(=O)c2cccn(-c3ccc(F)cc3)c2=O)ccc(Oc2ccnc(NC(=O)C3CC3)c2)c1C",
    "class assignment": "NO"
  },
  {
    "compound": "CO[C@H](C)CN1CC[C@]2(C)c3cccc(O)c3C[C@H]1C2(C)C.Cl",
    "class assignment": "YES"
  },
  {
    "compound": "COc1cc(OC)c(NC(=O)Nc2cc(C)on2)cc1Cl",
    "class assignment": "YES"
  },
  {
    "compound": "Nc1ncc2c(n1)-c1c([nH]c3ccc(C4=CCOCC4)cc13)CCC2",
    "class assignment": "YES"
  },
  {
    "compound": "CCc1nc(-c2cccc(C)c2)c(-c2ccncc2)s1",
    "class assignment": "NO"
  },
  {
    "compound": "Cn1nccc1-c1ccc(Sc2cccc(C3(C(N)=O)CCOCC3)c2)cc1",
    "class assignment": "YES"
  },
  {
    "compound": "Nc1c(CC(=O)O)cccc1C(=O)c1ccc(Br)cc1",
    "class assignment": "YES"
  },
  {
    "compound": "Fc1ccc(Cl)cc1-c1nc(Nc2ccncc2)c2nccnc2n1",
    "class assignment": "YES"
  },
  {
    "compound": "COC(=O)Nc1nc2c(s1)-c1c(c(-c3cccnc3)nn1-c1ccc(C3(N(C)C)CC3)cc1)CC2.Cl.Cl",
    "class assignment": "YES"
  },
  {
    "compound": "CO[C@@H](C)CN1CC[C@]2(C)c3cc(O)ccc3C[C@H]1C2(C)C.Cl",
    "class assignment": "YES"
  },
  {
    "compound": "CCC(=O)O[C@@H](OP(=O)(CCCCc1ccccc1)CC(=O)N1C[C@H](C2CCCCC2)C[C@H]1C(=O)[O-])C(C)C.[Na+] (stereo partly specified)",
    "class assignment": "NO"
  },
  {
    "compound": "CCN(C)C(=O)c1ccc2c(c1)NC(=O)/C2=C(\\NC1CCN(C)CC1)c1ccccc1",
    "class assignment": "YES"
  },
  {
    "compound": "Cc1cc(-c2ccnc(Nc3cnn(C)c3)n2)ccc1CNC(=O)N1CC(OC(C)C)C1",
    "class assignment": "YES"
  },
  {
    "compound": "CCC(=O)N[C@H]1CC[C@@H](C(=O)N(C)c2ccc(-c3nc4ccccc4o3)cc2)C1",
    "class assignment": "YES"
  },
  {
    "compound": "Cc1cc(C(C#N)c2ccc(Cl)cc2)c(Cl)cc1NC(=O)c1cc(I)cc(I)c1O (stereo unspecified)",
    "class assignment": "YES"
  },
  {
    "compound": "N#Cc1cccc(-c2c[nH]c3ncnc(N4CCOCC4)c23)c1",
    "class assignment": "YES"
  },
  {
    "compound": "O=C(NC1CCNCC1)c1n[nH]cc1NC(=O)c1c(Cl)cccc1Cl",
    "class assignment": "YES"
  },
  {
    "compound": "C/C(=C\\C(=O)Nc1ccccc1C(=O)[O-])c1ccc2ccccc2c1.[Na+]",
    "class assignment": "YES"
  },
  {
    "compound": "N#Cc1c(SCc2csc(-c3ccc(Cl)cc3)n2)nc(N2CCCC2)c(C#N)c1-c1ccc(OCCO)cc1",
    "class assignment": "YES"
  },
  {
    "compound": "NC(=O)c1sc2nc(N3CCC(NC[C@H](O)c4ccccn4)CC3)cc(C(F)(F)F)c2c1N",
    "class assignment": "NO"
  },
  {
    "compound": "O=C(CNCc1cc2ccccc2[nH]1)N[C@H]1CC[C@@H](c2nc3ccccc3[nH]2)CC1",
    "class assignment": "NO"
  },
  {
    "compound": "Cl.O=c1cc(C2CCNCC2)n2nc3cccc(Cl)c3c2[nH]1",
    "class assignment": "YES"
  }
]
